Assay: Binding affinity to leaf opening factor beta-glucosidase relative to potassium lespedezate
Parameters: unit not given here
As shown below, each of these compounds has a reported Activity value.
assayMetric: Activity

[
  {
    "compound": "O=C(O)/C(=C\\c1ccc(O)cc1)O[C@@H]1O[C@H](CO)[C@H](O)[C@H](O)[C@H]1O",
    "val": 0
  },
  {
    "compound": "O=C(O)C(Cc1ccc(O)cc1)O[C@@H]1O[C@H](CO)[C@@H](O)[C@H](O)[C@H]1O (stereo not given in full)",
    "val": 26
  },
  {
    "compound": "O=C(O)/C(=C/c1ccc(O)cc1)O[C@@H]1O[C@H](CO)[C@H](O)[C@H](O)[C@H]1O",
    "val": 0
  },
  {
    "compound": "O=C(O)/C(=C/c1ccc(O)cc1)O[C@@H]1O[C@H](CO)[C@@H](O)[C@H](O)[C@H]1O",
    "val": 0
  },
  {
    "compound": "OC/C(=C\\c1ccc(O)cc1)N[C@@H]1O[C@H](CO)[C@@H](O)[C@H](O)[C@H]1O",
    "val": 113
  }
]

----------
Assay: Inhibition of Aspergillus niger beta-glucosidase in acetate buffer at pH 5.5

[
  {
    "smi": "OCC(=Nc1ccc(O)cc1)N[C@@H]1O[C@H](CO)[C@@H](O)[C@H](O)[C@H]1O",
    "Ki [µM]": 1.33
  }
]

----------
Experiment: Inhibition of Aspergillus niger beta-glucosidase in acetate buffer at pH 4.5
pKi: −log10 of the molar value.

[
  {
    "smi": "OCC(=Nc1ccc(O)cc1)N[C@@H]1O[C@H](CO)[C@@H](O)[C@H](O)[C@H]1O",
    "pKi": 5.46
  }
]

----------
Assay: Inhibition of Aspergillus niger beta-glucosidase in acetate buffer at pH 6.0
assayMetric: Ki (µM)

[
  {
    "smi": "OCC(=Nc1ccc(O)cc1)N[C@@H]1O[C@H](CO)[C@@H](O)[C@H](O)[C@H]1O",
    "unitAnnotation": "µM",
    "val": 4.12
  }
]

----------
Assay: Inhibition of Aspergillus niger beta-glucosidase in acetate buffer at pH 5.0

[
  {
    "smi": "OCC(=Nc1ccc(O)cc1)N[C@@H]1O[C@H](CO)[C@@H](O)[C@H](O)[C@H]1O",
    "Ki / nM": 1300
  }
]
